Data origin, for the record: patent US9469615B2

Field: Ki. Provide a value for each of the molecules that follow.
assay target: hCRTH2 (Homo sapiens, UniProt Q9Y5Y4)
Construct: expressed in transfected cells; host or cells: HEK (human embryonic kidney) cells expressing hCRTH2; membrane preparation
procedure details: Radioligand binding assay ([3H]PGD2 competition, HEK-hCRTH2 membranes)
stated conditions: [3H]PGD2 binding, rated A-E (Table A)
Method: Biological Assays Radioligand Binding Assay. Radioligand binding assays were performed at room temperature in 50 mM Tris-HCl pH 7.4, 1 mM EDTA containing 2 mM MnCl2 and 3.0 nM [^3H]PGD2 (New England Nuclear, Boston, Mass.) (171 Ci mmol^−1), in a final volume of 0.2 mL. […] Total and non-specific binding were determined in the absence and the presence of 10 μM PGD2, respectively. […] The radioactivity was measured with Betaplate model 1205 (Wallac).

Consider the worked cases shown below.
{"molecule": "C[C@H](NC(=O)c1ccc2nc(-c3ccc(Cl)cc3)c(CCCCC(=O)O)nc2c1)c1ccc(F)cc1 [16T]", "Ki": "0.1 to 2 nM"}
{"molecule": "N#Cc1ccc(CNC(=O)c2ccc3nc(-c4ccc(C(F)(F)F)cc4)c(CCCCC(=O)O)nc3c2)cc1", "Ki": "2.1 to 20 nM"}

Batch of 3 molecules: report Ki for each.
1. COc1ccc([C@H](C)NC(=O)c2ccc3nc(-c4ccc(Cl)cc4)c(CCC(C)CC(=O)O)nc3c2)cc1 (stereo partly shown) [17P]
2. COC(=O)c1ccc2nc(-c3ccccc3)c(CCCCC(=O)O)nc2c1
3. C[C@H](NC(=O)c1ccc2nc(-c3ccc(C(F)(F)F)cc3)c(CCCCC(=O)O)nc2c1)c1cccc(-c2ccccc2)c1

1. 2.1 to 20 nM
2. 2.1 to 20 nM
3. 2.1 to 20 nM

Below are 2 molecules. Give each one its Ki.
1. CC(NC(=O)c1ccc2nc(-c3ccc(C(F)(F)F)cc3)c(CCCCC(=O)O)nc2c1)c1ccc(-c2ccccc2)cc1 (single isomer, unassigned) [4F]
2. O=C(O)CCCCc1nc2cc(C(=O)N3CC(c4nc5ccccc5o4)C3)ccc2nc1-c1ccc(F)cc1

1. 2.1 to 20 nM
2. 2.1 to 20 nM

====

assay target: hCRTH2 (Homo sapiens)
Construct: expressed in transfected cells; host or cells: HEK (human embryonic kidney) cells expressing hCRTH2; membrane preparation
Sequence (Q9Y5Y4 1-395): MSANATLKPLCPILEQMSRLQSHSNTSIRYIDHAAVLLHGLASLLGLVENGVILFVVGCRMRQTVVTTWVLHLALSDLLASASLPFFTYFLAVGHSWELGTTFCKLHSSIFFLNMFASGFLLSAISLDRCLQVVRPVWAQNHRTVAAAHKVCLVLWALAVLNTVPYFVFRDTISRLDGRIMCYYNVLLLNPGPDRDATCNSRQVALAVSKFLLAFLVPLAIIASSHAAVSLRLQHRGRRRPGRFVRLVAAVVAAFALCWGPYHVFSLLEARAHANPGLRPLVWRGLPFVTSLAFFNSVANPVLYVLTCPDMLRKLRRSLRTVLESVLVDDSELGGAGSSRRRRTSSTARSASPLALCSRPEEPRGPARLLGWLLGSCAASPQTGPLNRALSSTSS
procedure details: Radioligand binding assay ([3H]PGD2 competition, HEK-hCRTH2 membranes)
stated conditions: [3H]PGD2 binding, rated A-E (Table A)
pKi: −log10 of the molar value.
Could you please report measured pKi for the items listed next?

Known pKi results, listed for orientation:
{"compound": "O=C(O)CCCCc1nc2cc(C(=O)N3CCN(S(=O)(=O)c4ccccc4)CC3)ccc2nc1-c1ccccc1 [15o]", "result value": "7.70 to 8.68"}
{"compound": "O=C(O)CCCCc1nc2cc(C(=O)NCc3ccc(C(F)(F)F)cc3)ccc2nc1-c1ccccc1 [15C]", "result value": "8.70 to 10.00"}
{"compound": "CC(CCc1nc2cc(C(=O)NCc3ccc(C#N)cc3)ccc2nc1-c1ccc(C(F)(F)F)cc1)CC(=O)O (stereo not shown) [17Z]", "result value": "7.70 to 8.68"}

Below: the item to evaluate.
Could you tell me which pKi is on file for CN1C(=O)C2(CCN(C(=O)c3ccc4nc(-c5ccccc5)c(CCCCC(=O)O)nc4c3)CC2)c2ccccc21 ?
7.70 to 8.68
